Reported IC50 for target or system UniProt:P48730, by entry.
outcome measure: IC50 (nM)

# compound, target system, unit, data value
data = [
    ("COCCN1CCC(n2c(C3CC3)nc(-c3ccc(F)cc3)c2-c2ccc3nc(NC(=O)c4ccnc(F)c4)cn3n2)CC1 [Compound 120]", "UniProt:P48730", "nM", 1.52),
    ("O=C(Nc1cn2nc(-c3c(-c4ccc(F)cc4)ncn3C3CCN(C(=O)c4cscn4)CC3)ccc2n1)c1ccnc(F)c1 [Compound 44]", "UniProt:P48730", "nM", 0.295),
    ("O=C(Nc1cn2nc(-c3c(-c4ccc(F)cc4)nc4n3CCNC4)ccc2n1)c1ccnc(N2CCOCC2)c1 [Compound 458]", "UniProt:P48730", "nM", 0.3),
    ("CN(C)c1cc(C(=O)Nc2cn3nc(-c4c(-c5ccc(F)cc5)nc5ccccn45)ccc3n2)ccn1 [Compound 193]", "UniProt:P48730", "nM", 0.111),
    ("CSCCCN1CCC(n2cnc(-c3ccc(F)cc3)c2-c2ccc3nc(NC(=O)c4ccnc(F)c4)cn3n2)CC1 [Compound 26]", "UniProt:P48730", "nM", 0.449),
    ("COCCN1CCC(n2c(C)nc(-c3ccc(F)cc3)c2-c2ccc3nc(NC(=O)c4ccnc(F)c4)cn3n2)CC1 [Compound 141]", "UniProt:P48730", "nM", 1.03),
    ("O=C(Nc1cn2nc(-c3c(-c4ccc(F)cc4)nc4n3CCOC4)ccc2n1)c1ccnc(F)c1 [Compound 447]", "UniProt:P48730", "nM", 0.4),
]

* * *

pIC50: −log10 of the molar value.
Lab note: pIC50 readings collected with CK1ε (Homo sapiens (Human)) for the following molecules.
Sequence (P49674 whole entry): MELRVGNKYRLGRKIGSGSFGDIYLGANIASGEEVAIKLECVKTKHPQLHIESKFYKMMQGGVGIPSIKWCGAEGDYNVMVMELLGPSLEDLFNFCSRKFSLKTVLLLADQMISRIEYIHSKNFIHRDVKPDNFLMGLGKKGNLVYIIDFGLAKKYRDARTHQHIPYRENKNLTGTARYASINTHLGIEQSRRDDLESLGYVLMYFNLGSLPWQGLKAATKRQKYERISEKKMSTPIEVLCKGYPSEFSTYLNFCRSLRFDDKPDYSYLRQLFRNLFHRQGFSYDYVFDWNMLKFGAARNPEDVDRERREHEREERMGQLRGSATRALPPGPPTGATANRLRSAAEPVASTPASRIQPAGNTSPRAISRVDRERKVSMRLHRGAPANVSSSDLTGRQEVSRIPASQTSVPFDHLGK
outcome measure: pIC50

# molecule, data value
measured = [
    ("CC(C)NC(=O)N1CCn2c(nc(-c3ccc(F)cc3)c2-c2ccc3nc(NC(=O)c4ccnc(F)c4)cn3n2)C1 [Compound 482]", 7.92),
    ("O=C(Nc1cn2nc(-c3c(-c4ccc(F)cc4)ncn3-c3cccnc3)ccc2n1)c1ccnc(N2CCOCC2)c1 [Compound 424]", 7.87),
    ("O=C(Nc1cn2nc(-c3c(-c4ccc(F)cc4)ncn3C3CCN(C(=O)c4cnon4)CC3)ccc2n1)c1ccnc(F)c1 [Compound 14]", 8.41),
    ("O=C(Nc1cn2nc(-c3c(-c4ccc(F)cc4)ncn3CCN3CCCCC3=O)ccc2n1)c1ccnc(F)c1 [Compound 261]", 7.83),
    ("Nc1cc(C(=O)Nc2cn3nc(-c4c(-c5ccc(F)cc5)nc5ccccn45)ccc3n2)ccn1 [Compound 194]", 7.86),
    ("N#Cc1cccc(-c2cccc(C(=O)Nc3cn4nc(-c5c(-c6ccc(F)cc6)nc6ccccn56)ccc4n3)c2)c1 [Compound 207]", 7.74),
    ("O=C(Nc1cn2nc(-c3c(-c4ccc(F)cc4)ncn3C3CN(CCO)C3)ccc2n1)c1ccnc(F)c1 [Compound 150]", 8.42),
]

* * *

- target system: CK1δ (Homo sapiens (Human), UniProt P48730)
- Sequence (P48730 whole entry): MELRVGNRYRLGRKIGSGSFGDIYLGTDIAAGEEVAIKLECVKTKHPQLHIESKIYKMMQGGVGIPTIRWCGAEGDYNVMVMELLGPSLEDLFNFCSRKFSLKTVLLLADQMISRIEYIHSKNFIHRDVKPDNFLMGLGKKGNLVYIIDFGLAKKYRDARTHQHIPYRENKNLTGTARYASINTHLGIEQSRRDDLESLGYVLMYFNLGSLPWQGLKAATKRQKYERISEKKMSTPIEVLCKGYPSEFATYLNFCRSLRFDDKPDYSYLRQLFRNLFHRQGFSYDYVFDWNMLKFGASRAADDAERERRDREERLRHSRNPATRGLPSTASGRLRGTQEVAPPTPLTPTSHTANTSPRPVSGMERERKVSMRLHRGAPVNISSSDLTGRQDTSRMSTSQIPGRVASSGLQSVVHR
pIC50: −log10 of the molar value.
# pIC50 >= 9 gives Yes, anything below gives No

# molecule, discrete label
records = [
    ("O=C(Nc1cn2nc(-c3c(-c4ccc(F)cc4)nc4ccccn34)ccc2n1)c1cnc2ccccc2n1 [Compound 175]", "No"),
    ("O=C(Nc1cn2nc(-c3c(-c4ccc(F)cc4)ncn3C3CCNCC3)ccc2n1)c1ccncc1 [Compound 1]", "Yes"),
    ("O=C(Nc1cn2nc(-c3c(-c4ccc(F)cc4)ncn3C3CCN(C(=O)c4ccon4)CC3)ccc2n1)c1cncs1 [Compound 116]", "Yes"),
    ("Cc1nc(-c2ccc(F)cc2)c(-c2ccc3nc(NC(=O)c4ccnc(F)c4)cn3n2)n1C1CCN(CCCF)CC1 [Compound 140]", "No"),
    ("CC(C)OC(=O)N1CCC(n2cnc(-c3ccc(F)cc3)c2-c2ccc3nc(NC(=O)c4ccnc(F)c4)cn3n2)CC1 [Compound 76]", "Yes"),
]

Source listed as patent US9556179B2.
